Entries annotated with measured koff
# experimentalTarget: T1, recombinant human VISTA (His-tagged) (human, UniProt Q9H7M9 33-194)
# T1 construct: bought soluble protein (Sino Biological); also called hVISTA; human VISTA polypeptide
# assayExplanation: BLI (Octet), 1:1 global fit, His-tagged human VISTA captured

For orientation, consider the following solved cases.
binder	koff
anti-VISTA clone V4-C31 IgG1 (antibody, V domains shown) VH: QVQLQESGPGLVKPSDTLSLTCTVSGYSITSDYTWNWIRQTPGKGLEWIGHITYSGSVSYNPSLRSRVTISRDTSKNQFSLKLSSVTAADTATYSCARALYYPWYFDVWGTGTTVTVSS VL: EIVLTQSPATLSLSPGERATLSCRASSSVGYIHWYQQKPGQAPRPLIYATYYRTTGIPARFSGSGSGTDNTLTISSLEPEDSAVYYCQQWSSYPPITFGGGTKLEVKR	< 1e-07 s⁻¹
anti-VISTA clone V4-C27 IgG1 (antibody, V domains shown) VH: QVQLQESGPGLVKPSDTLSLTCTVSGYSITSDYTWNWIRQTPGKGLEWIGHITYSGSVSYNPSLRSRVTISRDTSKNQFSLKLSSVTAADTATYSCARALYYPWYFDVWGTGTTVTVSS VL: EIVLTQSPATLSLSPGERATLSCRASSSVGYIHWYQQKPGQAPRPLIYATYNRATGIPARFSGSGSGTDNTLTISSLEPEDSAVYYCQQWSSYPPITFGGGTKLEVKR	< 1e-07 s⁻¹

Next up:
Enquiry: Dear colleague, please send me the reported koff for anti-VISTA clone V4-C28 IgG1 (antibody, V domains shown) VH: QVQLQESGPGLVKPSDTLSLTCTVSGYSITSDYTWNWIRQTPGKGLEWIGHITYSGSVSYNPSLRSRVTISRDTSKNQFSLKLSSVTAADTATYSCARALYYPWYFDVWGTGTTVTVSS VL: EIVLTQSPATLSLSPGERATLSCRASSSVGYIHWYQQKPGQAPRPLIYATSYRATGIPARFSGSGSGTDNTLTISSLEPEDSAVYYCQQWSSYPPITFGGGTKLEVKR when you can.
Return: < 1e-07 s⁻¹

Cited source for all entries: patent US20250313631A1
